# study_system: castor bean PLD α (Ricinus communis, UniProt Q41142)
# Sequence (Q41142 31-808 limits assumed): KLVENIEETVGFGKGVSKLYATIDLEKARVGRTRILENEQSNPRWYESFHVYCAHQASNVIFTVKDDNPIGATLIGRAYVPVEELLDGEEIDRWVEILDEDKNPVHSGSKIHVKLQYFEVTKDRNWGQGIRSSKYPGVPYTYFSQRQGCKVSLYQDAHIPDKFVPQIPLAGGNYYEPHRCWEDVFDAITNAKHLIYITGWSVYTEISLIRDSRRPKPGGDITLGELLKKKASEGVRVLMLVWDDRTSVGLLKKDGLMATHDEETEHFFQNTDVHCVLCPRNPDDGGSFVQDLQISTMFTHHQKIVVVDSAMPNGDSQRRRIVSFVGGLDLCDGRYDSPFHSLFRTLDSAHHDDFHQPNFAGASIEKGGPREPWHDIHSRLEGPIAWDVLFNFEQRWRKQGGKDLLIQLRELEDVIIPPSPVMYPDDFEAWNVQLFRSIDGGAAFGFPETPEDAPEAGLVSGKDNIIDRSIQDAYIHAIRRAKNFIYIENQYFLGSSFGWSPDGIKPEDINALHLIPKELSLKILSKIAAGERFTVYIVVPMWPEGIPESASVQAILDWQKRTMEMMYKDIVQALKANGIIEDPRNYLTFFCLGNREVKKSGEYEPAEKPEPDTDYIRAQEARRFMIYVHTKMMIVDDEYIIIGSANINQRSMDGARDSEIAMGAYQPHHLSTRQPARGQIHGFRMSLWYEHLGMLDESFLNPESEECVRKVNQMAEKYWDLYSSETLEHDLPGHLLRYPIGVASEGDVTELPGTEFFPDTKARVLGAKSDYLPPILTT
# measurement_notes: biochemical
# Assay type: biochemical
With a cut-off of 5 µM, any IC50 strictly below it is called satisfied; any IC50 meeting it or above is called not satisfied.

[
  {
    "compound_smiles": "CCCCC/C=C\\C/C=C\\CCCCCCCC(=O)NCCO",
    "study_system": "castor bean PLD α (Ricinus communis, UniProt Q41142)",
    "group_label": "not satisfied"
  },
  {
    "compound_smiles": "CCCCCCCCCCCCCCCCCC(=O)NCCO",
    "study_system": "castor bean PLD α (Ricinus communis, UniProt Q41142)",
    "group_label": "not satisfied"
  },
  {
    "compound_smiles": "CCCCCCCCCCCC(=O)NCCO",
    "study_system": "castor bean PLD α (Ricinus communis, UniProt Q41142)",
    "group_label": "satisfied"
  },
  {
    "compound_smiles": "CCCCCCCCCCCCCC(=O)NCCO",
    "study_system": "castor bean PLD α (Ricinus communis, UniProt Q41142)",
    "group_label": "satisfied"
  }
]
